For each record, write down the corresponding normalised response.
System: CAL-148
Test: normalised response (% of control), CellTiter-Glo; higher = more viable cells (100 = DMSO, 0 = benzethonium chloride kill control)
Conditions: incubation time: 72 h
Numbers only, in %.

Example entries and their recorded answers appear below.
Cc1ccc(NC(=O)c2ccc(CN3CCN(C)CC3)cc2)cc1Nc1nc(-c2cccnc2)cs1 [Masitinib] (10 nM) | 108
CNC(=O)c1cccc(-c2ccc3c(N4CCOC[C@@H]4C)nc(N4CCOC[C@@H]4C)nc3n2)c1 [AZD2014] (1000 nM) | 35.1

Return reported normalised response values for all items listed beneath this line.
1. CCc1c2c(nc3ccc(OC(=O)N4CCC(N5CCCCC5)CC4)cc13)-c1cc3c(c(=O)n1C2)COC(=O)[C@]3(O)CC [Irinotecan] (1 nM)
2. COc1cc(OC2CCN(C)CC2)ccc1Nc1ncc2c(n1)n(C1CCCC1)c(=O)n2C [AZ 3146] (1 nM)
3. CN(C)CCOc1ccc(/C(=C(/CCCl)c2ccccc2)c2ccccc2)cc1 [Toremifene] (10 nM)
4. COC(=O)c1ccc2c(c1)NC(=O)/C2=C(\Nc1ccc(N(C)C(=O)CN2CCN(C)CC2)cc1)c1ccccc1 [Nintedanib] (1 nM)
5. COc1cc2c(NC3CCN(C(C)C)CC3)nc(N3CCC(F)(F)CC3)nc2cc1OCCCN1CCCC1 [UNC0642] (1 nM)

98.3
101
109
110
87.2

----------
Test system: HCC1937
Assay: normalised viability (% of control), CellTiter-Blue; higher = more viable cells (about 100 = DMSO control)
Conditions: 10 nM; incubation time: 72 h
For each record, write down the corresponding normalised viability.
Give bare numbers, in %.

Example entries and their recorded answers appear below.
C=C1C[C@@H]2[C@H](CC[C@]3(C)C(=O)CC[C@@H]23)[C@@]2(C)C=CC(=O)C=C12 | 87.7
CNC(=O)c1cc(Oc2ccc(NC(=O)Nc3ccc(Cl)c(C(F)(F)F)c3)c(F)c2)ccn1 | 94.9
CC(C)C[C@@H](C(=O)N[C@H](C(=O)OC1CCCC1)c1ccccc1)[C@H](O)C(=O)NO | 83.6

Now for another entry.
Name the reported normalised viability value associated with the compound `O=C(Nc1cccnc1)N1CCC(Cc2cccc(Oc3ccc(C(F)(F)F)cn3)c2)CC1`
122

----------
Tested on: MFM-223
Assay: drug sensitivity score (DSS), CellTiter-Blue viability (DSS (AUC-based score)); higher = stronger viability inhibition; extreme values may be limits of the assay
Settings: incubation time: 72 h
measure: drug sensitivity score
Numbers only.

Example entries and their recorded answers appear below.
Cc1cc(Nc2cc(CN3CCOCC3)c3nc(C)c(Cc4ccc(Cl)cc4F)n3n2)n[nH]1 | 13.5
Nc1cc(C(F)(F)F)c(-c2cc(N3CCOCC3)nc(N3CCOCC3)n2)cn1 | 9.9
C=C1C[C@@H]2[C@H](CC[C@]3(C)C(=O)CC[C@@H]23)[C@@]2(C)C=CC(=O)C=C12 | 0
COC(=O)c1ccc2c(c1)NC(=O)/C2=C(\Nc1ccc(N(C)C(=O)CN2CCN(C)CC2)cc1)c1ccccc1 | 9.32

Now for another entry.
Name the reported drug sensitivity score value associated with the compound O=P1(N(CCCl)CCCl)NCCCO1 (stereo not given) [Cyclophosphamide]
0

----------
System: Hs578T
Test: normalised response (% of control), CellTox Green; higher = less cell death (100 = DMSO, 0 = benzethonium chloride kill control)
Conditions: incubation time: 72 h
For each record, write down the corresponding normalised response.

CNC(=O)c1ccc(N2C(=S)N(c3ccc(C#N)c(C(F)(F)F)c3)C(=O)C23CCC3)cc1F [RD162] (1000 nM) | 85.7%

Return reported normalised response values for all items listed beneath this line.
1. CN(C)c1nc(N(C)C)nc(N(C)C)n1 [Altretamine] (1000 nM)
2. CNC(=O)c1ccc(N2C(=S)N(c3ccc(C#N)c(C(F)(F)F)c3)C(=O)C23CCC3)cc1F [RD162] (100 nM)

["98.1%", "88%"]

----------
Tested on: CAL-85-1
Assay: drug sensitivity score (DSS), CellTiter-Blue viability (DSS (AUC-based score)); higher = stronger viability inhibition; extreme values may be limits of the assay
Details: incubation time: 72 h
measure: drug sensitivity score
Answers are plain numbers.

Example entries and their recorded answers appear below.
O=C(Nc1ccncc1)C(=O)c1cn(Cc2ccc(Cl)cc2)c2ccccc12 | 11.8
COc1cc(OC2CCN(C)CC2)ccc1Nc1ncc2c(n1)n(C1CCCC1)c(=O)n2C | 1.25
N#Cc1ccc(COC[C@H]2O[C@@H](n3c(NCc4ccc(Cl)c(Cl)c4)nc4c(N)ncnc43)[C@H](O)[C@@H]2O)cc1 | 0
CNC(=O)c1cc(Oc2ccc(NC(=O)Nc3ccc(Cl)c(C(F)(F)F)c3)c(F)c2)ccn1 | 0
O=C(Nc1cccnc1)N1CCC(Cc2cccc(Oc3ccc(C(F)(F)F)cn3)c2)CC1 | 0

Return reported drug sensitivity score values for all items listed beneath this line.
1. Cc1cc(Nc2cc(CN3CCOCC3)c3nc(C)c(Cc4ccc(Cl)cc4F)n3n2)n[nH]1
2. O=C(/C=C/c1cccc(S(=O)(=O)Nc2ccccc2)c1)NO

1: 4.09; 2: 12.2

----------
Test system: MDA-MB-436
Experiment: normalised response (% of control), CellTiter-Glo; higher = more viable cells (100 = DMSO, 0 = benzethonium chloride kill control)
Conditions: incubation time: 72 h
Outcome: TRUE for normalised response of at least 90%; FALSE for anything lower.

Worked examples, 10 molecules total:
O=C(Nc1cccnc1)N1CCC(Cc2cccc(Oc3ccc(C(F)(F)F)cn3)c2)CC1 [PF-3845] (1 nM) | TRUE
CNC(=O)c1cccc(-c2ccc3c(N4CCOC[C@@H]4C)nc(N4CCOC[C@@H]4C)nc3n2)c1 [AZD2014] (10 nM) | TRUE
CNC(=O)c1ccc(N2C(=S)N(c3ccc(C#N)c(C(F)(F)F)c3)C(=O)C2(C)C)cc1F [Enzalutamide] (1 nM) | TRUE
CCc1c2c(nc3ccc(OC(=O)N4CCC(N5CCCCC5)CC4)cc13)-c1cc3c(c(=O)n1C2)COC(=O)[C@]3(O)CC [Irinotecan] (10 nM) | TRUE
CCOC(=O)CCNc1cc(N2CCc3ccccc3CC2)nc(-c2ccccn2)n1 [GSK-J4] (10 nM) | TRUE
CNC(=O)c1ccc(N2C(=S)N(c3ccc(C#N)c(C(F)(F)F)c3)C(=O)C23CCC3)cc1F [RD162] (1 nM) | TRUE
O=P1(N(CCCl)CCCl)NCCCO1 (stereo unspecified) [Cyclophosphamide] (4 nM) | TRUE
NC(=O)c1ccc(I)c([N+](=O)[O-])c1 [Iniparib] (10 nM) | FALSE
COc1cc(O)c2c(c1)/C=C/C[C@H](O)[C@H](O)C(=O)/C=C\C[C@H](C)OC2=O [(5Z)-7-Oxozeaenol] (1000 nM) | FALSE
COCC1(CO)C(=O)C2CCN1CC2 (stereo unspecified) [Prima-1 Met] (1000 nM) | TRUE

Test whether the molecule NC(=O)c1ccc(I)c([N+](=O)[O-])c1 [Iniparib] (1 nM) records normalised response of 90% or higher.
FALSE

Again, but for CCc1c2c(nc3ccc(OC(=O)N4CCC(N5CCCCC5)CC4)cc13)-c1cc3c(c(=O)n1C2)COC(=O)[C@]3(O)CC [Irinotecan] (1000 nM)
FALSE

Again, but for COC(=O)c1ccc2c(c1)NC(=O)/C2=C(\Nc1ccc(N(C)C(=O)CN2CCN(C)CC2)cc1)c1ccccc1 [Nintedanib] (1 nM)
TRUE

Again, but for Nc1cc(C(F)(F)F)c(-c2cc(N3CCOCC3)nc(N3CCOCC3)n2)cn1 [Buparlisib] (10 nM)
TRUE

----------
Tested on: MDA-MB-231
Settings: 72 h
Threshold 1000 nM: EC50, CellTiter-Glo strictly smaller gives fulfilled, otherwise not fulfilled.

Worked examples, 4 compounds total:
Cc1cc(Nc2cc(CN3CCOCC3)c3nc(C)c(Cc4ccc(Cl)cc4F)n3n2)n[nH]1 | not fulfilled
CCOC(=O)CCNc1cc(N2CCc3ccccc3CC2)nc(-c2ccccn2)n1 | not fulfilled
COCC[n+]1c2c(n(Cc3cnccn3)c1C)C(=O)c1ccccc1C2=O | fulfilled
CNC(=O)c1cc(Oc2ccc(NC(=O)Nc3ccc(Cl)c(C(F)(F)F)c3)c(F)c2)ccn1 | not fulfilled

Consider the record given below.
In plain terms, does `O=C(/C=C/c1cccc(S(=O)(=O)Nc2ccccc2)c1)NO` come in under 1000 nM for EC50, CellTiter-Glo?
fulfilled

----------
Test system: CAL-85-1
Assay: normalised viability (% of control), CellTiter-Blue; higher = more viable cells (about 100 = DMSO control)
Settings: incubation time: 72 h
measure: normalised viability (%)
Numbers only, in %.

Example entries and their recorded answers appear below.
O=P1(N(CCCl)CCCl)NCCCO1 (centres undefined) [Cyclophosphamide] (12000 nM) | 93.7
Oc1ccc2c(c1)CC[C@H](c1ccccc1)[C@@H]2c1ccc(OCCN2CCCC2)cc1 [Lasofoxifene] (300 nM) | 96.8
Cc1cc(Nc2cc(CN3CCOCC3)c3nc(C)c(Cc4ccc(Cl)cc4F)n3n2)n[nH]1 (3000 nM) | 59.4

Now for another entry.
Name the reported normalised viability value associated with the compound CC(C)C[C@@H](C(=O)N[C@H](C(=O)OC1CCCC1)c1ccccc1)[C@H](O)C(=O)NO [Tosedostat] (3000 nM)
61.1
